B1: LINE1-mini (parent)
chain: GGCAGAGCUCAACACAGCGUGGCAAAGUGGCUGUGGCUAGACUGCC

variants of: B1; test: self-cleavage, relative activity (ratio to wild type); higher = more cleavage; in vitro, sequencing; the parent is a self-cleaving ribozyme
Threshold check on self-cleavage: at or above 0.4 gives y, strictly below gives n.

G35A A39C    n
A11U C18G    n
C18G G22U    y
U28G C45U    y
C10A    n
A16G U34A    n
U20C A24U    y

Could you please find out whether A41U has self-cleavage that meets 0.4 or exceeds it?
y
